pIC50: −log10 of the molar value.
Quick record: pIC50, Epoxide hydrolase 1 (Homo sapiens).
result.type: pIC50

// below: answered compounds
| compound | pIC50 |
| --- | --- |
| O=C(NC(=S)NC12CC3CC(CC(C3)C1)C2)c1ccccc1 | 6.00 |
| CC(=O)NC(=S)Nc1ccncc1 | 5.68 |
| CC(=O)NC(=S)Nc1ccccc1C | 5.82 |
| CCOc1ccc(OCC)c(NC(=S)NC(C)=O)c1 | 5.60 |
| CC(=O)NC(=S)Nc1ccc(Br)c(C(F)(F)F)c1 | 5.86 |
| CC(=O)NC(=S)NC(C)(C)C | 5.57 |

(I) O=C(NC(=S)Nc1ccccc1)c1ccccc1 [N-(PHENYLCARBAMOTHIOYL)BENZAMIDE]
(II) Cc1ccccc1NC(=S)NC(=O)c1ccccc1
## Input Returns the identifier with the smallest measured pIC50 among I and II . // respond with label for picked entry
## Output II

(A) O=C(NC(=S)Nc1ccc(Cl)cc1)c1ccccc1
(B) CC(=O)NC(=S)Nc1ccc(N2CCOCC2)cc1
## Input For the two items A and B , which reports the higher pIC50 value? Record your answer as the label of the chosen record.
## Output A
(A: 5.79, B: 5.59)

(P) CC(=O)NC(=S)Nc1ccccc1 [N-(PHENYLCARBAMOTHIOYL)ACETAMIDE]
(Q) O=C(Nc1ccccc1)Nc1ccccc1
## Input Sort P and Q by pIC50 descending and give the first. Answer format: the label of the selected item.
## Output Q
(Q: 5.92, P: 5.63)
